- assayedSystem: Yer064c (UniProt P40041)
- Sequence: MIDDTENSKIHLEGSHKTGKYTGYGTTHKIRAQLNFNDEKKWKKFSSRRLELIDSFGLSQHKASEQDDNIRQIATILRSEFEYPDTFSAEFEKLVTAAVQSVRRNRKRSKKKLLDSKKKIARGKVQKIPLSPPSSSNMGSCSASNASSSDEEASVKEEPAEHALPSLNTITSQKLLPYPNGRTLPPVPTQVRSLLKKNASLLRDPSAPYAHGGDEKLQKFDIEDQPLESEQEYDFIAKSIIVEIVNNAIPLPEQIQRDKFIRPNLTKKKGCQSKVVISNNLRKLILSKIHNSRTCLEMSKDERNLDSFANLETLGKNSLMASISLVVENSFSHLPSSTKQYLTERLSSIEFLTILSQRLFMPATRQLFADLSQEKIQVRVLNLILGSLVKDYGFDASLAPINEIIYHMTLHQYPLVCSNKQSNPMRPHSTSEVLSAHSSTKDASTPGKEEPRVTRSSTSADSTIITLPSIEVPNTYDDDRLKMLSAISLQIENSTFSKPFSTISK
- protocolDetails: PBM E-score (8-mer binding enrichment) (E-score (-0.5 to 0.5)); higher = stronger / more preferred TF binding
- details: protein concentration: 200 nM; construct: GST-full length
In all, about 33,000 sequences were measured (“E-score (-0.5 to 0.5)”: median about -0.036, highest 2% from about 0.37 on). For the sample, the highest values were picked, then their nearest neighbours and some sequences at random.
Rule: PBM E-score of 0.2 or more gives condition met; anything lower gives condition not met.

[
  {
    "sequenceData": "TACTAAAA",
    "category": "condition not met"
  },
  {
    "sequenceData": "CGATAGCC",
    "category": "condition not met"
  },
  {
    "sequenceData": "CTACTCAG",
    "category": "condition not met"
  },
  {
    "sequenceData": "AGTCGTAT",
    "category": "condition met"
  },
  {
    "sequenceData": "TCAATCAA",
    "category": "condition met"
  },
  {
    "sequenceData": "AACTAAAC",
    "category": "condition not met"
  },
  {
    "sequenceData": "TCCCAGCA",
    "category": "condition not met"
  },
  {
    "sequenceData": "CGTCGTAG",
    "category": "condition not met"
  },
  {
    "sequenceData": "AACTCCAT",
    "category": "condition not met"
  },
  {
    "sequenceData": "ACTCGTAT",
    "category": "condition not met"
  },
  {
    "sequenceData": "AACTACGC",
    "category": "condition not met"
  },
  {
    "sequenceData": "AACTAAAA",
    "category": "condition not met"
  },
  {
    "sequenceData": "CCGTTTGA",
    "category": "condition not met"
  },
  {
    "sequenceData": "TCCAACCA",
    "category": "condition not met"
  },
  {
    "sequenceData": "AACTCAAC",
    "category": "condition not met"
  },
  {
    "sequenceData": "GTTGTCGA",
    "category": "condition not met"
  },
  {
    "sequenceData": "CGGTGCAG",
    "category": "condition not met"
  },
  {
    "sequenceData": "GTTCCAAA",
    "category": "condition not met"
  },
  {
    "sequenceData": "AAGTCAGG",
    "category": "condition met"
  },
  {
    "sequenceData": "AGGATAGG",
    "category": "condition not met"
  },
  {
    "sequenceData": "AGATAGTA",
    "category": "condition not met"
  },
  {
    "sequenceData": "GGTCGTAA",
    "category": "condition not met"
  },
  {
    "sequenceData": "ACATGACA",
    "category": "condition not met"
  },
  {
    "sequenceData": "TCTGGACA",
    "category": "condition not met"
  },
  {
    "sequenceData": "CACTCAAA",
    "category": "condition not met"
  },
  {
    "sequenceData": "GGTCGTAC",
    "category": "condition not met"
  },
  {
    "sequenceData": "ATGTCACG",
    "category": "condition not met"
  },
  {
    "sequenceData": "CCAGAGGA",
    "category": "condition not met"
  },
  {
    "sequenceData": "CGGTCATA",
    "category": "condition not met"
  },
  {
    "sequenceData": "ACATGACG",
    "category": "condition not met"
  },
  {
    "sequenceData": "CCATCCCA",
    "category": "condition not met"
  },
  {
    "sequenceData": "CGATAGTA",
    "category": "condition not met"
  },
  {
    "sequenceData": "CTATCATC",
    "category": "condition not met"
  },
  {
    "sequenceData": "AGATGACT",
    "category": "condition met"
  },
  {
    "sequenceData": "ACGGATTA",
    "category": "condition not met"
  },
  {
    "sequenceData": "CCGCGATA",
    "category": "condition not met"
  },
  {
    "sequenceData": "GGACTGAA",
    "category": "condition not met"
  },
  {
    "sequenceData": "CTGACTAC",
    "category": "condition met"
  },
  {
    "sequenceData": "AATCGTAT",
    "category": "condition not met"
  },
  {
    "sequenceData": "ACATGACT",
    "category": "condition met"
  },
  {
    "sequenceData": "TAGTCACA",
    "category": "condition met"
  },
  {
    "sequenceData": "GCGACACC",
    "category": "condition not met"
  },
  {
    "sequenceData": "CGATCATA",
    "category": "condition not met"
  },
  {
    "sequenceData": "AGTCGTAG",
    "category": "condition met"
  },
  {
    "sequenceData": "GACTCAAA",
    "category": "condition met"
  },
  {
    "sequenceData": "ACATGAGA",
    "category": "condition met"
  },
  {
    "sequenceData": "CTATGGAA",
    "category": "condition not met"
  },
  {
    "sequenceData": "CGGGACCA",
    "category": "condition not met"
  },
  {
    "sequenceData": "GTGACTAA",
    "category": "condition met"
  },
  {
    "sequenceData": "CATGGCCG",
    "category": "condition not met"
  },
  {
    "sequenceData": "ACGTCACG",
    "category": "condition not met"
  },
  {
    "sequenceData": "TAGTCATA",
    "category": "condition met"
  },
  {
    "sequenceData": "CCTTACAG",
    "category": "condition not met"
  },
  {
    "sequenceData": "ATGTTATA",
    "category": "condition not met"
  },
  {
    "sequenceData": "GACTAAAA",
    "category": "condition met"
  },
  {
    "sequenceData": "CGAATCAA",
    "category": "condition met"
  },
  {
    "sequenceData": "CTAATCAA",
    "category": "condition met"
  },
  {
    "sequenceData": "GACTACGC",
    "category": "condition met"
  },
  {
    "sequenceData": "GTCGTACA",
    "category": "condition not met"
  },
  {
    "sequenceData": "CGGACTAA",
    "category": "condition met"
  },
  {
    "sequenceData": "TTAATCAA",
    "category": "condition met"
  },
  {
    "sequenceData": "CACTCAAC",
    "category": "condition not met"
  },
  {
    "sequenceData": "GACTAAAC",
    "category": "condition met"
  },
  {
    "sequenceData": "CTTACTAC",
    "category": "condition not met"
  },
  {
    "sequenceData": "AACCCCAG",
    "category": "condition not met"
  },
  {
    "sequenceData": "CACTACGC",
    "category": "condition not met"
  },
  {
    "sequenceData": "CCATCCGA",
    "category": "condition not met"
  },
  {
    "sequenceData": "CAATCATA",
    "category": "condition met"
  },
  {
    "sequenceData": "ACGTCACC",
    "category": "condition not met"
  },
  {
    "sequenceData": "CCATCATA",
    "category": "condition not met"
  },
  {
    "sequenceData": "CAGTCATG",
    "category": "condition met"
  },
  {
    "sequenceData": "CAGTCATA",
    "category": "condition met"
  },
  {
    "sequenceData": "GACTCTCC",
    "category": "condition met"
  },
  {
    "sequenceData": "CGACTCAG",
    "category": "condition met"
  },
  {
    "sequenceData": "AGTCGTAA",
    "category": "condition met"
  },
  {
    "sequenceData": "ATTTGAGG",
    "category": "condition not met"
  },
  {
    "sequenceData": "AGGTGAGC",
    "category": "condition not met"
  },
  {
    "sequenceData": "CTAAACTA",
    "category": "condition not met"
  },
  {
    "sequenceData": "ACGGCCAG",
    "category": "condition not met"
  },
  {
    "sequenceData": "CGGACTAC",
    "category": "condition met"
  },
  {
    "sequenceData": "CACTCATG",
    "category": "condition met"
  },
  {
    "sequenceData": "AGAATCAA",
    "category": "condition met"
  },
  {
    "sequenceData": "AGACTGAA",
    "category": "condition met"
  },
  {
    "sequenceData": "GCGTAGCC",
    "category": "condition not met"
  },
  {
    "sequenceData": "AGTCGTAC",
    "category": "condition met"
  },
  {
    "sequenceData": "GTAGCATA",
    "category": "condition not met"
  },
  {
    "sequenceData": "ACTCGTAG",
    "category": "condition met"
  },
  {
    "sequenceData": "CCGCGGAC",
    "category": "condition not met"
  },
  {
    "sequenceData": "GACTCAAC",
    "category": "condition met"
  }
]

Ref: the supplement of paper PMC3334620
